# Target system: Aldehyde dehydrogenase, dimeric NADP-preferring (Homo sapiens)
# Sequence (P30838 whole entry): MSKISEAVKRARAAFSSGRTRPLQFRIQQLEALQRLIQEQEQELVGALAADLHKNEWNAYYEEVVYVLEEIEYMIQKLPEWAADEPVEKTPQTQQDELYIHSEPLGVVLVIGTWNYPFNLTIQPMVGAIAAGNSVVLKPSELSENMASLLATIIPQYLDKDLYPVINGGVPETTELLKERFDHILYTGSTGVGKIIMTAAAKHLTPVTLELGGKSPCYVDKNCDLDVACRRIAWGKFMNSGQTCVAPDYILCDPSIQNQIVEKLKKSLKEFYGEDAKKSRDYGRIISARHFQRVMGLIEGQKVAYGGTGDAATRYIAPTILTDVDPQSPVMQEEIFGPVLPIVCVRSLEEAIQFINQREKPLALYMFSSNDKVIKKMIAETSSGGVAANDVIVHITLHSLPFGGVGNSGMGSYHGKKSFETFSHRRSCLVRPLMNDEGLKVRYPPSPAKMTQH
# Experimental protocol: Inhibition of human ALDH3A1 using 4-nitrobenzaldehyde as substrate preincubated with enzyme for 15 mins followed by substrate addition in presence of NAD+ and measured for 5 mins by spectrophotometric analysis
# Measurement setup: read-out: IC50
Property: pIC50
Interpret pIC50 as the negative base-10 log of the concentration measured in mol/L.

Ask: // returns reported pIC50 for input c1ccc(Cn2c(-c3ccccc3)nc3ccccc32)cc1
Result: 4.01

---

# Experimental protocol: Lipid-water partition coefficient, logP of the compound
# Type: physicochemical
In this section, each of the compounds is paired with its reported logP.
Answer as a number with no unit attached.

Recorded logP, per entry:
>>> test_result("Clc1ccc(-c2nc3ccccc3n2Cc2ccccc2)cc1")
4.73
>>> test_result("COc1ccc(-c2nc3ccccc3n2Cc2ccccc2)cc1")
4.19
>>> test_result("CN(C)c1ccc(Cn2c(-c3ccc(N(C)C)cc3)nc3ccccc32)cc1")
4.02

Ask: Dear colleague, I am looking for the recorded logP of the following compound: CN(C)c1ccc(-c2nc3ccccc3n2Cc2ccccc2)cc1
Result: 4.17

Ask: Note, next up: c1ccc(Cn2c(-c3ccccc3)nc3ccccc32)cc1
Result: 4.19

---

# Target system: Aldehyde dehydrogenase 1A1 (Homo sapiens)
# Sequence (P00352 whole entry): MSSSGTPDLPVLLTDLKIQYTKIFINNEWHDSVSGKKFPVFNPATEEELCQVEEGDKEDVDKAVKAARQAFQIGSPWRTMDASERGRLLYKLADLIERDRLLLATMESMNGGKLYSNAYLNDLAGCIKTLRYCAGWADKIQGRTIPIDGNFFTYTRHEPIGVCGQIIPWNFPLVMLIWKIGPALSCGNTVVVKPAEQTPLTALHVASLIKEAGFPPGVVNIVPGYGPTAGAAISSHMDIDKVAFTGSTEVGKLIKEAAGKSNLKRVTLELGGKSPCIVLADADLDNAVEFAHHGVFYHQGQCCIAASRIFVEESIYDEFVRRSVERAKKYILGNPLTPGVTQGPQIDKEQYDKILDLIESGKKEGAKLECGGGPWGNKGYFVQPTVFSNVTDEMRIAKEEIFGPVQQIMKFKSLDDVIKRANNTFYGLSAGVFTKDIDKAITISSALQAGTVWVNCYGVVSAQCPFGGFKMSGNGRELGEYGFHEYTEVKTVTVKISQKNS
Property: IC50

Ask: Lab request: please report IC50 under test system Aldehyde dehydrogenase 1A1 (Homo sapiens) for c1ccc(Cn2c(-c3ccccc3)nc3ccccc32)cc1
Result: 8.67 µM
